# Test system: CCRF-CEM leukemia
# protocol_text: NCI tumour cell line growth inhibition, 48 h
Form field: GI50 (one value per entry).

The cases that follow already have their GI50 on record.
[
  {
    "structure_smiles": "Oc1ccc(Oc2cnc3ccccc3n2)cc1",
    "GI50": "24.2 µM"
  },
  {
    "structure_smiles": "CC1(C)N=C(N)N=C(N)N1c1cccc(OCCOc2cccc([N+](=O)[O-])c2)c1",
    "GI50": "1.23 µM"
  }
]

# evaluate next
I'd like to know its GI50. The compound in question is Cn1cc(-c2csc(-c3cn(C)c4ccc(F)cc34)n2)c2cnccc21
1.96 µM

###

# Tested on: M14 melanoma
# protocol_text: NCI tumour cell line growth inhibition, 48 h
experimental_endpoint: TGI

The cases that follow already have their TGI on record.
[
  {
    "compound": "COC(=O)C(=O)CC(=O)c1cccc(OC)c1",
    "measured_result": "> 100 µM"
  },
  {
    "compound": "CCOC(=O)C(Cc1ccc(O)cc1)Nc1nc(=O)c2c(=O)oc(Cl)cc2o1 (configuration not stated)",
    "measured_result": "15.1 µM"
  },
  {
    "compound": "COC(=O)C1=C(OC)[C@H]2C#C/C=C\\C#C[C@@H]3Nc4c(cc(O)c5c4C(=O)c4ccccc4C5=O)[C@]24O[C@@]34[C@H]1C",
    "measured_result": "< 0.01 µM"
  },
  {
    "compound": "COc1ccc(C2c3cc4c(cc3OC(N3CCOCC3)C2C)OCO4)cc1 (configuration not stated)",
    "measured_result": "> 89 µM"
  },
  {
    "compound": "COc1cc2c3c(n(CCCN(C)CCO)c(=O)c2cc1OC)-c1cc2c(cc1C3=O)OCO2",
    "measured_result": "> 68.9 µM"
  }
]

I'd like to know its TGI. The compound in question is COc1cc(OC)c2sc(-c3ccc(-n4cncc4-c4cc(OC)c(OC)c(OC)c4)cc3)nc2c1
> 100 µM

###

# Tested on: ACHN renal
# protocol_text: NCI tumour cell line growth inhibition, 48 h
Form field: TGI (one value per entry).

The cases that follow already have their TGI on record.
[
  {
    "compound": "CCOC(=O)c1ccc(-c2ccc(Cl)cc2)[nH]1",
    "TGI": "> 10 µM"
  },
  {
    "compound": "CC(=O)NC1C(Sc2ncn(C3OC(CO)C(O)C(O)C3NC(C)=O)n2)OC(CO)C(O)C1O (configuration not stated)",
    "TGI": "> 100 µM"
  },
  {
    "compound": "O=C(CBr)c1ccc2cc(Br)c3ccccc3c2c1",
    "TGI": "> 100 µM"
  },
  {
    "compound": "CC1COS(=O)O1 (configuration not stated)",
    "TGI": "> 100 µM"
  },
  {
    "compound": "CC(=O)c1c(N=[N+]=[N-])c2cccc3c2n(c1=O)CCC3",
    "TGI": "54.2 µM"
  },
  {
    "compound": "c1ccc2c3[nH]c(c2c1)=Nc1ccc(cc1)-c1nc2ccc(cc2o1)N=c1[nH]c(c2ccccc12)=Nc1ccc2nc(oc2c1)-c1ccc(cc1)N=3",
    "TGI": "35.5 µM"
  },
  {
    "compound": "Cc1cc(C)nc(NC(P(=O)(O)O)P(=O)(O)O)n1",
    "TGI": "> 100 µM"
  },
  {
    "compound": "Cc1noc2c1-c1ccccc1C(c1ccc(Cl)cc1)=N[C@H]2CC(N)=O",
    "TGI": "> 100 µM"
  }
]

I'd like to know its TGI. The compound in question is Cc1ccc2c(c1)CC1(Cc3cccc(C)c3C1=O)C2=O (configuration not stated)
> 100 µM

I'd like to know its TGI. The compound in question is CCC[CH2][Sn]1([CH2]CCC)[O]CC(COc2c(Cl)cc(Cl)cc2Cl)[O]1 (configuration not stated)
3.17 µM

I'd like to know its TGI. The compound in question is Oc1ccc(Oc2cnc3ccccc3n2)cc1
> 100 µM

I'd like to know its TGI. The compound in question is CC(=O)OC(CCC1(C)OC1COc1ccc(CCNC(=O)C=C(C)C)cc1)C(C)(C)OC(C)=O (configuration not stated)
> 100 µM

I'd like to know its TGI. The compound in question is CCOc1ccc(N=Cc2c3ccccc3nc3ccccc23)cc1
> 100 µM

I'd like to know its TGI. The compound in question is COc1ccc(-c2noc(N)c2-c2cc(OC)c3c(c2)OCO3)cc1
> 100 µM

I'd like to know its TGI. The compound in question is O=C(NNc1cnccn1)c1nc2cc(F)ccc2n2cccc12
> 100 µM
